# Measured target: Bovine pancreatic Trypsin (Bos taurus, UniProt P00760)
# Construct: from tissue; host or cells: bovine pancreas
# Sequence (P00760 24-246): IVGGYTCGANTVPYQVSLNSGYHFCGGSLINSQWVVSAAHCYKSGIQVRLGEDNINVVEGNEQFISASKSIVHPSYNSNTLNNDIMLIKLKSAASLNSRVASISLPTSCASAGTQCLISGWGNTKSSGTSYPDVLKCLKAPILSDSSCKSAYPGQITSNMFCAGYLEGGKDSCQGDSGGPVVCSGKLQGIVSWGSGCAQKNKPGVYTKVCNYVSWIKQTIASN
# Protocol: Ki determination, bovine pancreatic trypsin (N-a-Benzoyl-L-Arg-pNA)
# Assay type: biochemical
# Measurement conditions: 50 mM Tris-HCl, pH 8.2, 20 mM CaCl2; read-out: Experimentally Determined Ki, Trypsin
hey, just use y if measured Ki is less than 0.9 µM, otherwise n

N=C(N)c1ccc2cc(C(=O)NCc3ccc(OCCOc4ccc(CNC(=O)c5ccc6cc(C(=N)N)ccc6c5)cc4)cc3)ccc2c1 | y

Turning now to a further compound:
Q. Identify whether the compound N=C(N)c1ccc(C(=O)NCc2cccc(OCCCCCOc3cccc(CNC(=O)c4ccc(C(=N)N)cc4)c3)c2)cc1 records Ki below 0.9 µM.
A. y
